src = BindingDB's records for doi:10.1016/j.ejmech.2017.02.016

Experiment: Inhibition of human CYP1B1 expressed in HEK293 cells assessed as potentiation of cisplatin-induced cytotoxicity by measuring cisplatin EC50 at 0.018 uM by MTT assay (Rvb = 61 +/- 8 uM)
measured_attribute: EC50 (µM)
Answers are plain numbers, in µM.

## Task Value lookup for EC50; key = COc1ccc2cc(C(=O)/C=C/c3cccnc3)ccc2c1
## Result 8.3

###

Assay: Inhibition of human CYP1B1 expressed in HEK293 cells assessed as potentiation of cisplatin-induced cytotoxicity by measuring cisplatin EC50 at 0.02 uM by MTT assay (Rvb = 61 +/- 8 uM)
measured_attribute: pEC50
One number for each entry, as −log10 of the molar value.

## Task Value lookup for pEC50; key = O=C(/C=C/c1ccc2ccccc2c1)c1cccnc1
## Result 6.00
